Data provenance: patent US20190367619A1

// reported binding signal (nm) for each item listed
# TARGET_OR_SYSTEM: T1, human galectin-10-His (recombinant human galectin-10 with TEV-cleavable N-terminal His-tag) (human)
# T1 construct: SEC-MALLS: dimer in solution; also called Gal10-His; humanGal10-His
# T1 chain: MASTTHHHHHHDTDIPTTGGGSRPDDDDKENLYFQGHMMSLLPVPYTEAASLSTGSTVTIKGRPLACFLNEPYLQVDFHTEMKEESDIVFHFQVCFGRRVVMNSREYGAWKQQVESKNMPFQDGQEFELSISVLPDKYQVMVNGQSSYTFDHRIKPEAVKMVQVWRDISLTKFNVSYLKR
# MEASUREMENT_NOTES: BLI tandem on galectin-10-His; competitor: saturating 6B06 mIgG1 (10 ug/mL)
Value expressed in nm; do not type the unit.

Please review the following examples before continuing.
Prompt: Return value of binding signal (nm) for input 6B06 mouse IgG1 (antibody, V domains shown, also called 6B06 mIgG1) VH: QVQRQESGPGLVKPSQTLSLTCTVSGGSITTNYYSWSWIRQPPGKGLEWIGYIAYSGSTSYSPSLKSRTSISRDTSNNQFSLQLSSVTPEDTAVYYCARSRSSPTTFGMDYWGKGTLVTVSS VL: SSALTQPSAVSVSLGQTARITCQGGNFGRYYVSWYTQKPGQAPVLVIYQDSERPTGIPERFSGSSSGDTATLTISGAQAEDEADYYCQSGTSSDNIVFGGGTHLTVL , no commentary.
Response: 0.03

Prompt: Return value of binding signal (nm) for input 2C07 mouse IgG1 (antibody, V domains shown, VH on mouse IgG1 heavy chain constant domains (CH1-CH2-CH3), VL on mouse lambda light chain constant domain; also called 2C07 mIgG1) VH: ELQLVESGGGLVQPGGSLRLSCAASGFTFSSYAMSWVRQAPGKGLEWVSNINSGGGSTGYADSVKGRFTISRDNAKNTLYLQMNSLKPEDMAVYYCAKYLRTYYPNAAFGMDYWGKGTLVTVSS VL: QAVLTQPSAVSVSLGQTARITCQGGNFGRYYASWYQQKPGQAPVLVIYRDSERPSGIPERFSGSSSGDTATLTISGAQAEDEADYYCQSGRSSDNAVFGGGTHLTGL , no commentary.
Response: 0.04

We now examine a further binder.
Prompt: Return value of binding signal (nm) for input 1C09 mouse IgG1 (antibody, V domains shown, VH on mouse IgG1 heavy chain constant domains (CH1-CH2-CH3), VL on mouse lambda light chain constant domain; also called 1C09 mIgG1) VH: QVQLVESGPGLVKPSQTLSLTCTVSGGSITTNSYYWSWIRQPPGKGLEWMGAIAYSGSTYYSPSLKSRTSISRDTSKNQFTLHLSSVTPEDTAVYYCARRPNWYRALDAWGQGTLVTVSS VL: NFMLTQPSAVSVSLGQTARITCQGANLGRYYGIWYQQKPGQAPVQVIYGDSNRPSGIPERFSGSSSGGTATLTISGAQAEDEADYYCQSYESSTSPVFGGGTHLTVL , no commentary.
Response: 0.02
